Biological target: T1, Vasoactive intestinal peptide receptor 2 (VIPR2), human, on the human VIPR2-expressing cell line (Catalog No. … (human, UniProt P41587 24-438))
T1 construct: whole, on cells; also called VPAC2; VIPR2-expressing cells
T1 sequence (looked up): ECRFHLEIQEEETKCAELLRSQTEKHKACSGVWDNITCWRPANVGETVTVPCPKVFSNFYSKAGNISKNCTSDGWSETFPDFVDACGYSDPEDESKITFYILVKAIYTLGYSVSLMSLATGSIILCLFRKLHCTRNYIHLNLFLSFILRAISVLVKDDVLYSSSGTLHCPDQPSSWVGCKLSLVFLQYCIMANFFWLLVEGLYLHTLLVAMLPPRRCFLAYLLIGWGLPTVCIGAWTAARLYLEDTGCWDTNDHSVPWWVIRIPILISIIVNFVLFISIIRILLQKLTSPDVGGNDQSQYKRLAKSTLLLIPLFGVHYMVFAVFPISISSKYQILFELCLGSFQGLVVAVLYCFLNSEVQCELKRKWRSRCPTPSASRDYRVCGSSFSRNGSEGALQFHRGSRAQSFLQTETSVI
Assay: summary of the Examples (binding to VIPR2-expressing cells)
Bridges are numbered along the chain shown (N, C = ends).

binder: Ac-CPPYLPKYLCDLI-NH2 (disulfide 1-10; lactam 7-11; SMILES CC[C@H](C)[C@H](NC(=O)[C@H](CC(C)C)NC(=O)[C@@H]1CC(=O)NCCCC[C@@H]2NC(=O)[C@@H]3CCCN3C(=O)[C@H](CC(C)C)NC(=O)[C@H](Cc3ccc(O)cc3)NC(=O)[C@@H]3CCCN3C(=O)[C@@H]3CCCN3C(=O)[C@@H](NC(C)=O)CSSC[C@H](NC(=O)[C@H](CC(C)C)NC(=O)[C@H](Cc3ccc(O)cc3)NC2=O)C(=O)N1)C(N)=O, Synthetic bicyclic peptide) [Seq-10]
binding result: binds
